Tested target: T1, rat α-CGRP (1-37) (rat, C-terminal amide; N-terminal biotin when captured on the SA chip)
T1 construct: also called rat α (1-37); α-rat
T1 peptide: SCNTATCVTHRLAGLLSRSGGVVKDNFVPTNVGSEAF
Assay overview: Biacore, 37°C, Fab over CGRP on SA chip
Outcome measure: Kd (nM)
Write the value in nM as a bare number.

G1 variant M32 Fab (Fab, V domains shown, Fab; constant domains as m1) VH: EVQLVESGGGLVQPGGSLRLSCAASGFTFSNYWISWVRQAPGKGLEWVAEIRSKSDHSATHYAEAVKGRFTISRDNAKNSLYLQMNSLRAEDTAVYYCTVYFDYGLAIQNYWGQGTLVTVSS VL: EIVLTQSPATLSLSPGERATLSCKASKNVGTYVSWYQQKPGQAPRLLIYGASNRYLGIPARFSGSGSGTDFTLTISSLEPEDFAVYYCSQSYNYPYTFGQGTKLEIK	164
G1 variant M41 Fab (Fab, V domains shown, Fab; constant domains as m1) VH: EVQLVESGGGLVQPGGSLRLSCAASGFTFSNYWISWVRQAPGKGLEWVAEIRSKSDNSATHYADAVKGRFTISRDNAKNSLYLQMNSLRAEDTAVYYCTVYFDYGLAIQNYWGQGTLVTVSS VL: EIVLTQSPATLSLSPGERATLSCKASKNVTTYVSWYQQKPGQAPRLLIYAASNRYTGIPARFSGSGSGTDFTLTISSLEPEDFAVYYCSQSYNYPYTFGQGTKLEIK	252

Attention now shifts to the item below.
Kd for G1 variant M47 Fab (Fab, V domains shown, Fab; constant domains as m1) VH: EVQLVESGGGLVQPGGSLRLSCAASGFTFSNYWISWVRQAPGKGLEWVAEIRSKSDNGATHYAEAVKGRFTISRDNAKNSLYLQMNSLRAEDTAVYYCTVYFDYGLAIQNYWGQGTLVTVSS VL: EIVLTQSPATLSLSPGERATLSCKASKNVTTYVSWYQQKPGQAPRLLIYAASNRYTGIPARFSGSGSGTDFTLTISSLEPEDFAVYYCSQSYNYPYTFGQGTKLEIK ?
457
